Experiment: Stability of KPT-335 in cat plasma samples (UPLC-MS/MS)
Assay type: in vitro ADME
Experimental Conditions: cat, plasma, light-protected; read-out: recovery rate of light-protected samples
Measurement Kind: recovery at 8 h

Query: Need recovery at 8 h of O=C(/C=C\n1cnc(-c2cc(C(F)(F)F)cc(C(F)(F)F)c2)n1)NNc1ccccn1 , thanks.
Response: 60.4 to 63.2%

###

Experiment: Pharmacokinetic study of KPT-335 capsules in cats, single oral dose
Type: in vivo, cat
Experimental Conditions: plasma; cats, single oral dose of capsules 2 mg/kg BW
Measurement Kind: Tmax (h)
Give bare numbers, in h.

Query: Need Tmax of O=C(/C=C\n1cnc(-c2cc(C(F)(F)F)cc(C(F)(F)F)c2)n1)NNc1ccccn1 , thanks.
Response: 1.46

###

Experiment: Pharmacokinetic study of KPT-335 capsules in cats, single oral dose
Format: in vivo, cat
Experimental Conditions: plasma; cats, single oral dose of capsules 2 mg/kg BW
Measurement Kind: half-life (h)
Give bare numbers, in h.

Query: Need half-life of O=C(/C=C\n1cnc(-c2cc(C(F)(F)F)cc(C(F)(F)F)c2)n1)NNc1ccccn1 , thanks.
Response: 5.16

###

Experiment: Pharmacokinetic study of KPT-335 capsules in cats, single oral dose
Type: in vivo, cat
Experimental Conditions: plasma, po; cat (n = 6), 2 mg/kg BW p.o., single dose, fasted; read-out: Lambda_z (converted)
Measurement Kind: k el (s⁻¹)
Numbers only, in s⁻¹.

Query: Need k el of O=C(/C=C\n1cnc(-c2cc(C(F)(F)F)cc(C(F)(F)F)c2)n1)NNc1ccccn1 , thanks.
Response: 4.17e-05

###

Experiment: Pharmacokinetic study of KPT-335 capsules in cats, single oral dose
Assay type: in vivo, cat
Experimental Conditions: plasma, po; cat (n = 6), 2 mg/kg BW p.o., single dose, fasted
Measurement Kind: MRT last
Quick note: number first, unit second.

Query: Need MRT last of O=C(/C=C\n1cnc(-c2cc(C(F)(F)F)cc(C(F)(F)F)c2)n1)NNc1ccccn1 , thanks.
Response: 5.46 h
